experiment: purified protein yield per well (BCA); higher = higher soluble expression
QUANTITY NAME: purified protein yield per well

Guide cases for purified protein yield per well, answers given:
DEIGQAPTAGNITGNGSFTTTSESISSLVSGFGGGRVYYPTTAGKYPVVAISPGFTATWSSLSWIGPRLSSWGFVVVGIETNSIYDQPASRGSQLLAALNWAVNSSSSAVRARVDGSRRGVAGHSMGGGGTLEALAADTTGLVKAGVPIAPWNSDKTWNNVSEPVMIVGGQSDTVAPVASHSIPFYNTLAGPKGYVELTGASHFFPQSTNATLSRALVAWFKRWLNQDSRFTPYTCGFSGLAVSDFRSNAC [ESM090] ... 116 µg
ADNPYERGPAPTNSSIEASRGPFAVSETSVSSLVSGFGGGTIYYPTSTSAGTFGAVAISPGYTGTQSTMAWLGPRLASQGFVIFTIDTNSVYDQPDSRASQLLAALDYLTQQSTVRTRIDSSRLGVMGHSMGGGGTLRAASQRPSLQAAIPLTGWHTTKNWSSVRVPTLVVGAESDSVAPVSSHSEPFYTSLPSTLDKAYLELNNASHFAPNSSNTTIAKYSISWLKRFIDNDTRYEQFLCPAPGRSTLIEEYRDTCPHS [TEP028] ... < 25 µg
GASAPAANPYERGPAPTEQALLAPLGSFTYSTVVVPRSQVTGFGGGTIYYPDDTSQGTYGGVVAVPGFVSPEGAVAWLGPHMASRGFVVFTIATTSPFDQPTARGKQLLAALDHLTQRTPDAVRKRLDPARLAVTGHSMGGGGALYASGARPGIKAAIPLAPYNQDKTWNEVATPTLVVGGSADQIASVDKHARPFYNSLTGARDRGLLNVAAADHGDFTQENSITGRYAAAWLKRFVDEDTRYDQYLCPATGGPGVTEYSASCPLS [TEP151] ... < 25 µg
MVSYSPRYKAVAFTVAAGLVGGGLAGLAPNRHERGPDPTRALLEAPRGPLATARTVVPRAEAAGYGGGTIYHPAEMRTGETYGAVAIIPGRNGPQSGMSWYGPRLASHGFIVFTIDALRPLDRPPARGAQLQAALQQLAVRSPVATHVDAGRLAVMGHSLGGAGALEAAKARPGLRAAIPLTPSDVAGPDFSGVRVPTLILAAEKDTVAPLGRHARKFYRAIPRGTEKAYVELAGATHGFPKLPHPTVARYTIAWLKRWVDGDRRYDRVLCPSGRREPAVSFQRDTCPHD [TEP187] ... < 25 µg

Now, please, on to the next sequence.
Note to self: purified protein yield per well recorded for CAAQAQTSPPTSASLNATAGPLSVSTSSVSSWAARGFGGGTIYYPNATGRYGVVAISPGYTARQSSIAWLGRRLATHGFVVITIDTNSTLDQPPSRATQLMAALNHVVNNANATVRSRVDASKLAVAGHSMGGGGSLIAAENNPSLKAAYPLTPWSVSKNYSSVRVPTMIIGADGDSIASVSTHSRLFYNSLSSNVSKAYGELNNASHFTPNYTNTPIGRYAVTWMKRFVDNDTRYSPFLCGAPHDSYATRTVFDRYEDNCAY [ESM071] was < 25 µg
